# Tested target: EGFR (Homo sapiens)
# Assay summary: EGFR signaling (pEGFR Tyr1068/total EGFR MSD) in A431 cells
# Type: cell-based
# Set-up: endogenous in cells; host or cells: A431, N87
# Particulars: ratio A431 pEGFR EC50 to BT474 pHER2 EC50
Quantity kind: Selectivity A431 EC50/BT474 EC50

Reference set, count: 5
compound="Cc1ccc(Oc2ccc(Nc3ncnc4sc5c(c34)CCN(C(=O)/C=C/CN3CC4C(CO)C4C3)C5)cc2C)cn1 (centres unmarked) [Compound 34]" quantity_kind="Selectivity A431 EC50/BT474 EC50" assay_result="C (C: ≥ 10 and < 20)"
compound="Cc1ccc(Oc2ccc(Nc3ncnc4sc5c(c34)CCN(C(=O)/C=C/CN3CCC(n4ccnc4)CC3)C5)cc2C)cn1 [Compound 62]" quantity_kind="Selectivity A431 EC50/BT474 EC50" assay_result="B (B: ≥ 20 and < 100)"
compound="C=C(CN1CCc2c(sc3ncnc(Nc4ccc(Oc5ccc(C)nc5)c(C)c4)c23)C1)C(=O)OCC [Compound 86]" quantity_kind="Selectivity A431 EC50/BT474 EC50" assay_result="B (B: ≥ 20 and < 100)"
compound="Cc1ccc(Oc2ccc(Nc3ncnc4sc5c(c34)C[C@@H](C)N(C(=O)/C=C/CN(C)C)[C@H]5C)cc2C)cn1 (racemic) [Compound 149]" quantity_kind="Selectivity A431 EC50/BT474 EC50" assay_result="B (B: ≥ 20 and < 100)"
compound="Cc1ccc(Oc2ccc(Nc3ncnc4sc5c(c34)C(C)N(C(=O)C=CCN(C)C)C5)cc2C)cn1 (single isomer, unassigned) [Compound 148]" quantity_kind="Selectivity A431 EC50/BT474 EC50" assay_result="B (B: ≥ 20 and < 100)"

Input Cc1ccc(Oc2ccc(Nc3ncnc4sc5c(c34)CCN(C(=O)/C=C/CN3CC4CC3CO4)C5)cc2C)cn1 (centres unmarked) [Compound 26] , output reported Selectivity A431 EC50/BT474 EC50.
D (D: ≥ 5 and < 10)

Input Cc1ccc(Oc2ccc(Nc3ncnc4sc5c(c34)C(C)CN(C(=O)/C=C/CN(C)C)C5)cc2C)cn1 (centres unmarked) [Compound 98] , output reported Selectivity A431 EC50/BT474 EC50.
C (C: ≥ 10 and < 20)

====

# Tested target: HER2YVMA (Homo sapiens, UniProt P04626, INS775YVMA)
# Sequence (P04626 with tags, fused parts or gaps INS775YVMA): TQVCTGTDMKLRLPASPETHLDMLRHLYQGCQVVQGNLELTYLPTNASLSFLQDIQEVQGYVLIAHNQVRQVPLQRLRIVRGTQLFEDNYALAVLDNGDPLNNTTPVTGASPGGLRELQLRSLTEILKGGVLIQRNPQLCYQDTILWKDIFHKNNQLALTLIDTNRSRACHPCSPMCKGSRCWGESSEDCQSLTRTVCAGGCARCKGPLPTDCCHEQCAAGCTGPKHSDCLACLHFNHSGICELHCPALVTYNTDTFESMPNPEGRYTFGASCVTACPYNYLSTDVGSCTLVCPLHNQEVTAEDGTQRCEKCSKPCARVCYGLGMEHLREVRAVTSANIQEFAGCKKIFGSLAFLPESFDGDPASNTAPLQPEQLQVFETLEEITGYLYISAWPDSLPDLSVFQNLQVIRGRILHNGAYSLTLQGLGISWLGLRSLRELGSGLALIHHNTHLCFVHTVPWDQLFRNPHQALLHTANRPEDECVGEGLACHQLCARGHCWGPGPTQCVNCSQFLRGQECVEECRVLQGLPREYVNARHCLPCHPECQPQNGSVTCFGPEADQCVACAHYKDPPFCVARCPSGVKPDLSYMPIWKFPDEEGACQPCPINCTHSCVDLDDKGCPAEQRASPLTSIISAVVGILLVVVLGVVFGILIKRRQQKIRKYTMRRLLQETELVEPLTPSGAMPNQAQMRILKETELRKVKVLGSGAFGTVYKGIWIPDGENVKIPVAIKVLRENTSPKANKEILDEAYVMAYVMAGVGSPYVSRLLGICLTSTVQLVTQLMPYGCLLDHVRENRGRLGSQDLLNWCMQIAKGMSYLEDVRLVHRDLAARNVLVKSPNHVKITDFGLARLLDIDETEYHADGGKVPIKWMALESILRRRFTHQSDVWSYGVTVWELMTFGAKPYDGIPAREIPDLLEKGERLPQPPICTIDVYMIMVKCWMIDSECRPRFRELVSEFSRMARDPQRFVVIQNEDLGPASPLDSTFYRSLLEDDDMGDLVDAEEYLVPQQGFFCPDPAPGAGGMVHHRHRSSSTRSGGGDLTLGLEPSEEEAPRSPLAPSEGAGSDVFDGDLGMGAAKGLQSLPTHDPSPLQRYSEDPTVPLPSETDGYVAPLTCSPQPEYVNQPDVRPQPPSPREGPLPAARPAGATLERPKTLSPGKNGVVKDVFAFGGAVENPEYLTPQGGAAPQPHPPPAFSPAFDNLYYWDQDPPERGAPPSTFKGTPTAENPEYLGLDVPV
# Assay summary: HER2 signaling (pHER2) in Hek293-HER2YVMA cells
# Type: cell-based
# Set-up: expressed in transfected cells; host or cells: HEK293 (pool), Ba/F3 (clones), BEAS2B (clones); lentiviral vector pCDH-CMV-MCS-EF1-Neo
# Particulars: 1.5 hr compound, 1% FBS, read-out: HEKYVMA pHER2 EC50
pEC50: −log10 of the molar value.
The following compounds are shown together with reported pEC50 values.

compound="Cc1ccc(Oc2ccc(Nc3ncnc4sc5c(c34)C(C)CN(C(=O)/C=C/CN(C)C(C)(C)C)C5)cc2C)cn1 (stereo not shown)" quantity_kind=pEC50 assay_result="> 7.00"
compound=Cc1cc(Nc2ncnc3sc4c(c23)CCN(C(=O)/C=C/CN(C)C)CC4)ccc1Oc1ccn2ncnc2c1 quantity_kind=pEC50 assay_result="6.46 to 7.00"
compound=Cc1ccc(Oc2ccc(Nc3ncnc4[nH]c5c(c34)CN(C(=O)/C=C/CN(C)C)CC5)cc2C)cn1 quantity_kind=pEC50 assay_result="6.46 to 7.00"

Next compound, pEC50 to be filled in.
Input Cc1ccc(Oc2ccc(Nc3ncnc4sc5c(c34)CCN(C(=O)/C=C/CNCc3ccsc3)C5)cc2C)cn1 , output reported pEC50.
> 7.00

====

# Tested target: EGFR (Homo sapiens, UniProt P00533)
# Sequence (P00533 25-1210): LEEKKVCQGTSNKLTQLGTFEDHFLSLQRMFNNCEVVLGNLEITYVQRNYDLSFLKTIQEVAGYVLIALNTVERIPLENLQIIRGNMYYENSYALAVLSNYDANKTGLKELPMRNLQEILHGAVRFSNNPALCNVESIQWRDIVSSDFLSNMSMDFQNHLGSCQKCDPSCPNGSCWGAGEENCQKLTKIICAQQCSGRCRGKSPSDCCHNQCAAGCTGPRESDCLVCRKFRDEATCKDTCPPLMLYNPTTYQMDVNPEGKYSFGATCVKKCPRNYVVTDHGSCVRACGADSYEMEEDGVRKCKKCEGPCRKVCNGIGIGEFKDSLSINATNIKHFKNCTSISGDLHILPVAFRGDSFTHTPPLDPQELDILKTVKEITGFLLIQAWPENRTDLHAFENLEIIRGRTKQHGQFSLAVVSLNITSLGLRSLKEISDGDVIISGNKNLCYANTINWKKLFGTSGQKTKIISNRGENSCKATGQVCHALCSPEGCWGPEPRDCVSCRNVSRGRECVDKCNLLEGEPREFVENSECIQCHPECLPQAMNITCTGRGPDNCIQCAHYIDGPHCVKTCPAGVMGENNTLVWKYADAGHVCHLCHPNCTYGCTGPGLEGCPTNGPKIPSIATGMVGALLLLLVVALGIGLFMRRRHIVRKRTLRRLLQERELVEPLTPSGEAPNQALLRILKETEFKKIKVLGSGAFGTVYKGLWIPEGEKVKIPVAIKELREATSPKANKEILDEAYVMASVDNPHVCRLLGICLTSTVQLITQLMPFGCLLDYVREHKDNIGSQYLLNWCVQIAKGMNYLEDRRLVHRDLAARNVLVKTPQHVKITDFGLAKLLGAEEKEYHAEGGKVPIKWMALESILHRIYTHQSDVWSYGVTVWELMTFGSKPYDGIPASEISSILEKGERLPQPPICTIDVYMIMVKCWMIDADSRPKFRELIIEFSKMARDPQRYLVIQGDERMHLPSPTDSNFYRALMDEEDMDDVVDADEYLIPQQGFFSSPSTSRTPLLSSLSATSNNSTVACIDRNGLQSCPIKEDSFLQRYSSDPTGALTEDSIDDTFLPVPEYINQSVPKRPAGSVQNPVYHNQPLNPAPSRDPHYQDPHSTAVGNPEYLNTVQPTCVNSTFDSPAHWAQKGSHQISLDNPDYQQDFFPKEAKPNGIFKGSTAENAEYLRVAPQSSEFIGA
# Assay summary: EGFR signaling (pEGFR Tyr1068/total EGFR MSD) in A431 cells
# Assay type: cell-based
# Set-up: endogenous in cells; host or cells: A431, N87
# Particulars: ratio A431 pEGFR EC50 to HEK YVMA pHER2 EC50
Quantity kind: Selectivity A431 EC50/HEKYVMA EC50

compound="Cc1ccc(Oc2ccc(Nc3ncnc4sc5c(c34)CCN(C(=O)/C=C/CN3C4CCC3CC4)C5)cc2C)cn1 [Compound 44]" quantity_kind="Selectivity A431 EC50/HEKYVMA EC50" assay_result="E (E: >1 and < 5)"
compound="Cc1ccc(Oc2ccc(Nc3ncnc4sc5c(c34)CCN(C(=O)/C=C/CNCCS(C)(=O)=O)C5)cc2C)cn1 [Compound 45]" quantity_kind="Selectivity A431 EC50/HEKYVMA EC50" assay_result="D (D: ≥ 5 and < 10)"
compound="Cc1ccc(Oc2ccc(Nc3ncnc4sc5c(c34)CCN(C(=O)/C=C/CN3CC4CC3CO4)C5)cc2C)cn1 (centres unmarked) [Compound 26]" quantity_kind="Selectivity A431 EC50/HEKYVMA EC50" assay_result="D (D: ≥ 5 and < 10)"
compound="Cc1cc(Nc2ncnc3sc4c(c23)CCN(C(=O)/C=C/CN2CC(C)(C)OC(C)(C)C2)C4)ccc1Oc1ccc2ncnn2c1 [Compound 84]" quantity_kind="Selectivity A431 EC50/HEKYVMA EC50" assay_result="B (B: ≥ 20 and < 100)"
compound="Cc1ccc(Oc2ccc(Nc3ncnc4sc5c(c34)CCN(C(=O)/C=C/CN3CCN4C(=O)CCC4C3)C5)cc2C)cn1 (centres unmarked) [Compound 58]" quantity_kind="Selectivity A431 EC50/HEKYVMA EC50" assay_result="D (D: ≥ 5 and < 10)"

Input C#CCOCCN(C)C/C=C/C(=O)N1CCc2c(sc3ncnc(Nc4ccc(Oc5ccc(C)nc5)c(C)c4)c23)C1 [Compound 139] , output reported Selectivity A431 EC50/HEKYVMA EC50.
B (B: ≥ 20 and < 100)

Input Cc1ccc(Oc2ccc(Nc3ncnc4sc5c(c34)CCN(C(=O)/C=C/CN[C@H]3CC[C@H](OCC(F)(F)F)CC3)C5)cc2C)cn1 [Compound 70] , output reported Selectivity A431 EC50/HEKYVMA EC50.
E (E: >1 and < 5)

Input C=CC(=O)N1Cc2sc3ncnc(Nc4ccc(Oc5ccc(C)nc5)c(C)c4)c3c2C(C)C1 (centres unmarked) [Compound 142] , output reported Selectivity A431 EC50/HEKYVMA EC50.
B (B: ≥ 20 and < 100)

====

pIC50: −log10 of the molar value.
The following compounds each carry a recorded pIC50 for EGFR WT (Homo sapiens, UniProt P00533).

Reference set, count: 3
compound=Cc1ccc(Oc2ccc(Nc3ncnc4sc5c(c34)CCN(C(=O)/C=C/CNC34CCC(C#N)(CC3)CC4)C5)cc2C)cn1 assay_result="5.00 to 6.00"
compound="C=CC(=O)N1Cc2sc3ncnc(Nc4ccc(Oc5ccc(C)nc5)c(C)c4)c3c2C(C)C1 (stereo not shown) [Compound 142]" assay_result="5.00 to 6.00"
compound=Cc1ccc(Oc2ccc(Nc3ncnc4sc5c(c34)CCN(C(=O)/C=C/CN3CCC(n4ccnc4)CC3)C5)cc2C)cn1 assay_result="< 5.00"

Input Cc1cn2ccc(Oc3ccc(Nc4ncnc5sc6c(c45)CCN(C(=O)/C=C/CN(C)C)C6)cc3C)cc2n1 , output reported pIC50.
< 5.00

====

# Tested target: HER2YVMA (Homo sapiens, UniProt P04626, INS775YVMA)
# Assay summary: HER2 signaling (pHER2) in BEAS2B-HER2YVMA cells
# Type: cell-based
# Design: expressed in transfected cells; host or cells: HEK293 (pool), Ba/F3 (clones), BEAS2B (clones); lentiviral vector pCDH-CMV-MCS-EF1-Neo
# Particulars: read-out: BEAS2B YVMA pHER2 EC50
The following compounds are shown together with reported EC50 values.

Input Cc1ccc(Oc2ccc(Nc3ncnc4sc5c(c34)CCN(C(=O)/C=C/CN(C)C)C5)cc2C)cn1 [Compound 8] , output reported EC50.
< 100 nM

Input COc1ccc(Oc2ccc(Nc3ncnc4sc5c(c34)CCN(C(=O)/C=C/CN(C)C)C5)cc2C)cn1 [Compound 95] , output reported EC50.
< 100 nM

====

# Tested target: UniProt P04626
Quantity kind: IC50

compound="Cc1ccc(Oc2ccc(Nc3ncnc4sc5c(c34)CN(C(=O)C=CCN(C)C)C5C)cc2C)cn1 (single isomer, unassigned)" assay_result="1 to 10 µM"
compound=Cc1ccc(Oc2ccc(Nc3ncnc4sc5c(c34)CCN(C(=O)/C=C/CN3CCC(CO)(CO)CC3)C5)cc2C)cn1 assay_result="< 0.1 µM"
compound="Cc1ccc(Oc2ccc(Nc3ncnc4sc5c(c34)C(C)N(C(=O)C=CCN(C)C)C5)cc2C)cn1 (single isomer, unassigned) [Compound 148]" assay_result="1 to 10 µM"
compound=Cc1ccc(Oc2ccc(Nc3ncnc4sc5c(c34)CCN(C(=O)/C=C/CN(C)C(C)(C)C)C5)cc2C)cn1 assay_result="< 0.1 µM"

Fill in IC50 for C#CCOCCN(C)C/C=C/C(=O)N1CCc2c(sc3ncnc(Nc4ccc(Oc5ccc(C)nc5)c(C)c4)c23)C1 tested with UniProt P04626.
< 0.1 µM

Fill in IC50 for Cc1ccc(Oc2ccc(Nc3ncnc4sc5c(c34)CCN(C(=O)/C=C/CN3CCCCC3(C)CO)C5)cc2C)cn1 (stereo not shown) tested with UniProt P04626.
< 0.1 µM

Fill in IC50 for Cc1ccc(Oc2ccc(Nc3ncnc4sc5c(c34)C(C)N(C(=O)C=CCN(C)C)C5)cc2C)cn1 (single isomer, unassigned) [Compound 147] tested with UniProt P04626.
< 0.1 µM

Fill in IC50 for Cc1ccc(Oc2ccc(Nc3ncnc4sc5c(c34)CN(C(=O)/C=C/CN(C)C)C5)cc2Cl)cn1 tested with UniProt P04626.
< 0.1 µM

Fill in IC50 for Cc1ccc(Oc2ccc(Nc3ncnc4sc5c(c34)CCN(C(=O)/C=C/CN(C)C)CC5)cc2Cl)cn1 tested with UniProt P04626.
0.1 to 1 µM

Fill in IC50 for Cc1ccc(Oc2ccc(Nc3ncnc4sc5c(c34)CCN(C(=O)/C=C/CN3CCC[C@H](CO)C3)C5)cc2C)cn1 tested with UniProt P04626.
< 0.1 µM

Fill in IC50 for Cc1ccc(Oc2ccc(Nc3ncnc4sc5c(c34)CCN(C(=O)/C=C/CN3CCC4(CCOC4)C3)C5)cc2C)cn1 (stereo not shown) tested with UniProt P04626.
< 0.1 µM

Fill in IC50 for Cc1ccc(Oc2ccc(Nc3ncnc4sc5c(c34)C(C)CN(C(=O)C=CCN3CCOCC3)C5)cc2C)cn1 (single isomer, unassigned) [Compound 176] tested with UniProt P04626.
0.1 to 1 µM

Fill in IC50 for CN(C/C=C/C(=O)N1CCc2c(sc3ncnc(Nc4ccc(Oc5ccc6ncnn6c5)c(Cl)c4)c23)C1)C(C)(C)C tested with UniProt P04626.
< 0.1 µM
